Kd values, listed per item
- targetOfAssay: Fc-fusion protein of human PSMA (hPSMA-Fc) (Homo sapiens)
- Construct: purchased Acro Biosystems PSA-H5264
- Sequence (Q04609 44-750 limits assumed): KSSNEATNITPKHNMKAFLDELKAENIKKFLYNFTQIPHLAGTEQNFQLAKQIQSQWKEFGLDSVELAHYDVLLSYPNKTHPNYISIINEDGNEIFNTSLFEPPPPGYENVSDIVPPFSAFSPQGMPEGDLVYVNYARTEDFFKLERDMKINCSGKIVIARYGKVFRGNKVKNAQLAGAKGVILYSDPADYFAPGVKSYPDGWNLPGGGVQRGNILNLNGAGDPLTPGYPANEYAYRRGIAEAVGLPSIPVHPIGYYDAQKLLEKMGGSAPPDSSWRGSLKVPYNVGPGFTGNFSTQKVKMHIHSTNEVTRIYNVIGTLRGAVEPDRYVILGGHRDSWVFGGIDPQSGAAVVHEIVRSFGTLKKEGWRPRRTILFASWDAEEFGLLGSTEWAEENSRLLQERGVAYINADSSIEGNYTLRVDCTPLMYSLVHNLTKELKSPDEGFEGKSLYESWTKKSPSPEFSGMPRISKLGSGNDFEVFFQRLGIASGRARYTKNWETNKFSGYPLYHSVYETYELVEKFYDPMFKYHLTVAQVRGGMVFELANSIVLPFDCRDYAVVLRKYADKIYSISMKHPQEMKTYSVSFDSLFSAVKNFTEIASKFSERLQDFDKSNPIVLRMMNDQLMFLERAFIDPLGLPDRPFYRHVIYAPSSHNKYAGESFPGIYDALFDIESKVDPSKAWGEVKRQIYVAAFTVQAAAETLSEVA
- measurementProtocol: Surface plasmon resonance assay (Biacore T200, single cycle kinetic)
- Type: binding
- conditionsUsed: pKD category for PSMA SPR activity assay, hPSMA-Fc, 25° C.; read-out: pKD CAT (converted)
Numbered stars: 1 amine (or outer) side, 2 acyl side, 3 side chain; on linkers, the order of the positions; unused ones are H or OH. Bridge positions count the residues as written; N and C are the ends. Square brackets hold non-standard residues; d marks the D form. Peptide text beside a SMILES is read from it. * marks the point of attachment. DOTA = O=C(O)CN1CCN(CC(=O)O)CCN(CC(=O)*)CCN(CC(=O)O)CC1; X1 = O=C(CC1CCN([*:1])CC1)[*:2]; Tle = CC(C)(C)[C@H](N)C(=O)O; 4Abz = Nc1ccc(C(=O)O)cc1; Aib = CC(C)(N)C(=O)O; Ahx = NCCCCCC(=O)O; Bn = c1ccc(C*)cc1

See these solved cases before continuing.
Exercise: Item under review: C[C@@H](O)[C@H](NC(=O)[C@@H](NC(=O)[C@@H]1CSSC[C@H](NC(=O)[C@H](Cc2ccccc2)NC(=O)C(C)(C)NC(=O)[C@@H](NC(=O)CC2CCN(C(=O)CN3CCN(CC(=O)O)CCN(CC(=O)O)CCN(CC(=O)O)CC3)CC2)[C@@H](C)O)C(=O)N[C@@H](CCCCN)C(=O)N[C@@H](CCCNC(=N)N)C(=O)NC(C)(C)C(=O)N[C@@H](CC(N)=O)C(=O)N1)C(C)(C)C)C(N)=O [PSM-0492] ({DOTA}-[X1]T[Aib]FCKR[Aib]NC[Tle]T-NH2; disulfide 5-10) . Reported Kd?
Solution: < 12.6 nM

Exercise: Entry CCCC[C@H](NC(=O)[C@@H]1CSSC[C@H](NC(=O)[C@H](Cc2ccccc2)NC(=O)[C@H](C)NC(=O)[C@@H](NC(C)=O)[C@@H](C)O)C(=O)N[C@@H](CCCCN)C(=O)N[C@@H](CCCNC(=N)N)C(=O)N[C@@H](C)C(=O)N[C@@H](CC(N)=O)C(=O)N1)C(=O)N[C@H](C(=O)N[C@H](CC(=O)O)C(N)=O)[C@@H](C)O (single isomer, unassigned) [PSM-0436] has what Kd?
Solution: > 501 nM

Exercise: Give its Kd value. Item: CC(=O)N[C@H](C(=O)NC(C)(C)C(=O)N[C@@H](CSCc1ccccc1)C(=O)N[C@H]1CSSC[C@@H](C(=O)N[C@H](C(=O)N[C@H](C(N)=O)[C@@H](C)O)C(C)(C)C)NC(=O)[C@H](CC(N)=O)NC(=O)C(C)(C)NC(=O)[C@H](CCCNC(=N)N)NC(=O)[C@H](CCCCN)NC1=O)[C@@H](C)O [PSM-0441] (Ac-T[Aib]C(Bn)CKR[Aib]NC[Tle]T-NH2; disulfide 4-9)
Solution: 12.6 to 126 nM

Exercise: Entry C[C@@H](O)[C@H](NC(=O)[C@@H](NC(=O)[C@@H]1CSSC[C@H](NC(=O)[C@H](Cc2ccccc2)NC(=O)C(C)(C)NC(=O)[C@@H](NC(=O)c2ccc(NC(=O)CN3CCN(CC(=O)O)CCN(CC(=O)O)CCN(CC(=O)O)CC3)cc2)[C@@H](C)O)C(=O)N[C@@H](CCCCN)C(=O)N[C@@H](CCCNC(=N)N)C(=O)NC(C)(C)C(=O)N[C@@H](CC(N)=O)C(=O)N1)C(C)(C)C)C(N)=O [PSM-0448] ({DOTA-4Abz}-T[Aib]FCKR[Aib]NC[Tle]T-NH2; disulfide 4-9) : reported Kd = ?
Solution: < 12.6 nM

Now look at this entry.
Exercise: For C[C@@H](O)[C@H](NC(=O)[C@@H](NC(=O)[C@@H]1CSSC[C@H](NC(=O)[C@H](Cc2ccccc2)NC(=O)C(C)(C)NC(=O)[C@@H](NC(=O)CCCCCNC(=O)CN2CCN(CC(=O)O)CCN(CC(=O)O)CCN(CC(=O)O)CC2)[C@@H](C)O)C(=O)N[C@@H](CCCCN)C(=O)N[C@@H](CCCNC(=N)N)C(=O)NC(C)(C)C(=O)N[C@@H](CC(N)=O)C(=O)N1)C(C)(C)C)C(N)=O [PSM-0368] ({DOTA-Ahx}-T[Aib]FCKR[Aib]NC[Tle]T-NH2; disulfide 4-9) , what is its reported Kd?
Solution: < 12.6 nM

Data origin: patent US20260083865A1
